# Tested on: P388 leukemia ip, CD2F1 mice, survival T/C
# experiment_summary: NCI In Vivo Anticancer Drug Screen. Data for tumor model P388 Leukemia (intraperitoneal) in CD2F1 (CDF1) mice
# run_parameters: endpoint: median survival time; dose: 100.0 mg/kg/injection; schedule: Q01DX001 (ip); vehicle: saline with Tween-80; higher = longer survival
# Description: The antitumor activity of compounds was measured in mice bearing transplantable tumors. Survival or tumor size were measured and the results are expressed as the measurement made in the treated group (T) divided by the measurement made in the vehicle treated control group (C). The tumor model used in this assay is P388 Leukemia (intraperitoneal) in CD2F1 (CDF1) mice
Toxic doses and inconclusive results are not listed.
metric_name: T/C

Cc1nnc2c([Se])nccn12	99 % of control
COP(=O)(O)OC.[Ti]	96 % of control
COC(=O)CC(c1ccccc1)C1(c2ccc3c(c2)OCO3)SCCCS1 (stereo not given)	92 % of control

Quick batch: T/C for everything below.
1. CN(CC(=O)O)c1ccc(/C=C/c2ccnc3ccccc23)cc1
2. Cn1c2c(c(=O)n(C)c1=O)N1c3c(n(C)c(=O)n(C)c3=O)NN1C(c1ccccc1)=N2

OUT:
1. 97 % of control
2. 95 % of control

----------
# Test system: P388 leukemia ip, CD2F1 mice, survival T/C
# experiment_summary: NCI In Vivo Anticancer Drug Screen. Data for tumor model P388 Leukemia (intraperitoneal) in CD2F1 (CDF1) mice
# run_parameters: endpoint: median survival time; dose: 200.0 mg/kg/injection; schedule: Q01DX005 (ip); vehicle: Klucel (hydroxypropylcellulose) (HPC); higher = longer survival
Toxic doses and inconclusive results are not listed.
metric_name: T/C

Cc1ccc(C23c4ccccc4CCN2C(=O)C3N)cc1 (centres undefined)	93 % of control
CCC1c2ccc3cc(OC)ccc3c2CCC1(C)C(=O)O (centres undefined)	100 % of control
CC(=O)NCC1CC2(Cl)C(Cl)=C(Cl)C1(Cl)C2(Cl)Cl (centres undefined)	106 % of control
Cc1cc(C(O)(C(F)(F)F)C(F)(F)F)c2c(c1)C(C(F)(F)F)(C(F)(F)F)OC(C)(C)N2	101 % of control

Quick batch: T/C for everything below.
1. COC(=O)C1=C(O)/C(=C\c2ccccc2)NC1=O
2. COc1ccc(N=C(CC(C)C)C2C(=O)c3ccccc3C2=O)cc1
3. NC1(N)ON(c2ccc(C=O)cc2)C(c2ccc([N+](=O)[O-])cc2)S1 (centres undefined)
4. C/C(=N\NC(=S)N1CCCC1)c1ccc[nH]1
5. CC1CC(=O)Nc2cc(C(F)(F)F)ccc2N1 (centres undefined)

OUT:
1. 104 % of control
2. 104 % of control
3. 89 % of control
4. 89 % of control
5. 93 % of control

----------
# System: P388 leukemia ip, CD2F1 mice, survival T/C
# experiment_summary: NCI In Vivo Anticancer Drug Screen. Data for tumor model P388 Leukemia (intraperitoneal) in CD2F1 (CDF1) mice
# run_parameters: endpoint: median survival time; dose: 25.0 mg/kg/injection; schedule: Q04DX003 (ip); vehicle: saline; higher = longer survival
Toxic doses and inconclusive results are not listed.
metric_name: T/C

Field: example entries. Status: answers known.
CC(=O)O/N=C/c1ccncc1	108 % of control
Nc1ccccc1N1CCNCC1	100 % of control

From here, focus on the item given below.
IN: Which T/C value belongs to `O=CC1C(=O)NC(=O)NC1=O` ?
OUT: 112 % of control
